# METHOD_NOTES: In vitro metabolic stability test
# Assay type: in vitro ADME
# EXPERIMENTAL_PARAMETERS: human liver microsome, NADPH production system, 37° C., 20 min incubation, HPLC-UV
Documented elimination rate (%/min/mg) across a set of compounds
Kindly answer with a numeric value in %/min/mg, unit omitted.

# annotated cases, reported elimination rate (%/min/mg) shown
COMPOUND	READING
CC(=O)NCCC1CCc2ccc3nc(C)sc3c21 (centres unmarked) [Example 19]	2.4
CC(=O)NCC[C@@H]1CCc2ccc3nc(C)sc3c21 [Example 20]	2.7
COc1nc2ccc3c(c2o1)C(CCNC(C)=O)CC3 (centres unmarked) [Example 38]	2.6

[in] elimination rate (%/min/mg) for CC(=O)NCC[C@@H]1CCc2ccc3nc(C)oc3c21 [Example 12] ?
[out] −0.3

[in] Next compound: CCC(=O)NCC[C@@H]1CCc2ccc3nc(C)oc3c21 [Example 15]
[out] 2.6

* * *

READOUT_LABEL: melting point

COMPOUND	melting point
CCC(=O)NCC=C1CCc2ccc3nc(C)oc3c21	214 to 216 °C
CCC(=O)NCCC1CCc2ccc3ncoc3c21 (centres unmarked)	89 to 90 °C
CCC(=O)NCC=C1CCc2ccc3nc(CCCCc4ccccc4)oc3c21	111 to 113 °C
CC(=O)NCC=C1CCc2ccc3nc(C)sc3c21	184 to 186 °C
Cc1nc2ccc3c(c2o1)C(CCNC(=O)C(F)(F)F)CC3 (centres unmarked)	104 to 106 °C
CC(=O)NCCC1=C(C(C)C)Cc2ccc3nc(C)oc3c21	135 to 138 °C

[in] Given the entry CC(=O)CCc1nc2ccc3c(c2o1)C(CCNC(C)=O)CC3 (centres unmarked) , report its measured melting point.
[out] 111 to 112 °C

* * *

# STUDY_TARGET: human melatonin 1 receptors (human MT1 receptors) (Homo sapiens (Human), UniProt P48039)
# Sequence (P48039 whole entry): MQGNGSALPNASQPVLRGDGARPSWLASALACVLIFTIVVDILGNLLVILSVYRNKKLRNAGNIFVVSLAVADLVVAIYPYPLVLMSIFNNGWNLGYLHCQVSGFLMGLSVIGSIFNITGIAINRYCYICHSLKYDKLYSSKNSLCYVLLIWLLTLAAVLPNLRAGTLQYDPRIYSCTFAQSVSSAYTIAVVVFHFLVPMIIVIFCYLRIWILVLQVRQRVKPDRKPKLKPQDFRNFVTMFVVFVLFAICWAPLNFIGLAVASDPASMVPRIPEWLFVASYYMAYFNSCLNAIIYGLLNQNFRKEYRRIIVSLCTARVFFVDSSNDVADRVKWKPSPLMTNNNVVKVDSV
READOUT_LABEL: pIC50
To interpret pIC50, take it as minus log10 of a concentration measured in moles per litre.

COMPOUND	pIC50
Cc1nc2ccc3c(c2o1)C(CCNC(=O)C(F)(F)F)CC3 (centres unmarked) [Example 45]	10.02

[in] Which pIC50 is listed for CC(=O)NCC=C1CCc2ccc3nc(CCCCc4ccccc4)oc3c21 [Example 6] ?
[out] 10.10

[in] Check CC(=O)NCC=C1CCc2ccc3nc(C)oc3c21 [Example 3] too.
[out] 9.48

[in] Same again, this time with COc1nc2ccc3c(c2o1)C(CCNC(C)=O)CC3 (centres unmarked) [Example 38]
[out] 9.27

[in] Could you do the same for CC(=O)NCCC1CCc2ccc3nc(CCCCc4ccccc4)oc3c21 (centres unmarked) [Example 17] , please?
[out] 10.66

[in] Try this compound next: CCc1nc2ccc3c(c2o1)C(CCNC(C)=O)CC3 (centres unmarked) [Example 22]
[out] 9.44

[in] Note, next up: CC(=O)NCCC1CCc2ccc3nc(C)oc3c21 (centres unmarked) [Example 11]
[out] 9.82

[in] Please do the same for CC(=O)NCC[C@H]1CCc2ccc3nc(C)oc3c21 [Example 13] as well.
[out] 7.82

* * *

READOUT_LABEL: melting point

MOLECULE	READING
CC(=O)NCCC1CCc2ccc3nc(-c4ccccc4)oc3c21 (stereo not shown)	124 to 126 °C
CC(=O)NCCC1CCc2ccc3nc(CCc4ccccc4)oc3c21 (stereo not shown)	85 to 87 °C
CCNC(=O)NCCC1CCc2ccc3nc(C)oc3c21 (stereo not shown)	136 to 138 °C
Cc1nc2ccc3c(c2o1)C(CCNC(=O)C1CC1)CC3 (stereo not shown)	134 to 137 °C
CC(=O)NCCC1CCc2ccc3nc(C(F)(F)F)oc3c21 (stereo not shown)	114 to 116 °C
CCC(=O)NCC=C1CCc2ccc3ncoc3c21	148 to 150 °C

Next item in the queue.
[in] Which melting point is reported for this molecule? CSc1nc2ccc3c(c2o1)C(CCNC(C)=O)CC3 (stereo not shown)
[out] 115 to 117 °C
